target: CYP2C11 (Rattus norvegicus, UniProt P08683); construct: hydroxylation of testosterone (CYP2C11, CYP2A1, CYP3A, CYP2B1/2) in rat liver microsomes; from tissue; host or cells: rat liver, microsomes; experiment: Testosterone 2α-hydroxylase in rat liver microsomes; assay type: biochemical; details: probe testosterone (2α-hydroxylation); 10 μM R116010; rat liver microsomes; read-out: percentage of inhibition, Testosterone 2α-hydroxylase (CYP2C11)
Sequence (P08683 whole entry): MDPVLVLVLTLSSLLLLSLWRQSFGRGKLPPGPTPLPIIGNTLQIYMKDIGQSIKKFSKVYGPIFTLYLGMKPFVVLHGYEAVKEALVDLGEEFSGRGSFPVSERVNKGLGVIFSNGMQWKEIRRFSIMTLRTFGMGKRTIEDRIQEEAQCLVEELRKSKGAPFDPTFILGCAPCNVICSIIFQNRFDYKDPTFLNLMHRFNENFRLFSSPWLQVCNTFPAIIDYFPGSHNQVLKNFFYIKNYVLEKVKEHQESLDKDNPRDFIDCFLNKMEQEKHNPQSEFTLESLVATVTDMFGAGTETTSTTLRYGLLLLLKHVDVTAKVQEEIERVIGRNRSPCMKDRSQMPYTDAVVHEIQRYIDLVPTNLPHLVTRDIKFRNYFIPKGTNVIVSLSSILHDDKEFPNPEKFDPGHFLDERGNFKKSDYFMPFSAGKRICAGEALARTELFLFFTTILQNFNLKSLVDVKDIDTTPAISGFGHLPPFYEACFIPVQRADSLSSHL

| compound | inhibition at 10 μM, % |
| --- | --- |
| C[C@@H]([C@H](c1ccc(Nc2nc3ccccc3s2)cc1)n1ccnc1)N(C)C [R116010] | 28 |

###

tested on: CYP3A; test: Testosterone 6β-hydroxylase in rat liver microsomes; conditions: probe testosterone

| smilesInput | IC50 |
| --- | --- |
| C[C@@H]([C@H](c1ccc(Nc2nc3ccccc3s2)cc1)n1ccnc1)N(C)C | > 10 µM |
